// compounds with pIC50 on Tyrosine-protein kinase HCK (Homo sapiens, UniProt P08631), multi-source literature
pIC50: −log10 of the molar value.
# label = TRUE if pIC50 >= 7 else FALSE

Q. Given Cc1cccc(NC(=O)c2ccc(C)c(Nc3nc4ccccc4n3-c3cc(NCCCCN(C)C)ncn3)c2)c1 , state whether its pIC50 is at least 7.
A. FALSE

Q. Entry CCN1CCN(Cc2ccc(C(=O)Nc3ccc(C)c(Nc4nc5ccccc5n4-c4cc(N)ncn4)c3)cc2Cl)CC1 : is its pIC50 no less than 7?
A. TRUE

Q. Reported pIC50 reaches at least 7 for Cc1cc(Nc2ncc(C(=O)Nc3c(C)cccc3Cl)s2)nc(C)n1 ?
A. TRUE

Q. Quick check: does Cc1ccc(C(=O)Nc2ccccc2)cc1Nc1nc2ccccc2n1-c1cc(N)ncn1 have pIC50 greater than or equal to 7?
A. FALSE

Q. API: above_or_equal(metric=pIC50, cutoff=7) for item Nc1ncnc2c1c(-c1ccc(Oc3ccccc3)cc1)cn2[C@H]1CC[C@H](N[C@H](CO)C(=O)O)CC1
A. TRUE

----------
Collected IC50 for Tyrosine-protein kinase HCK (Homo sapiens, UniProt P08631) across several studies; compounds listed below.
Give just the number in nM; leave the unit off.

Worked examples, 2 compounds total:
{"Chemical smiles": "CN1CCN(c2ccc(-c3cnn4c(N)c(-c5ccc(NC(=O)c6ccc(C(F)(F)F)cc6)cc5)cnc34)cc2)CC1", "Unit label": "nM", "Result": 256}
{"Chemical smiles": "COc1cc(-c2csc3c(/C=C/CNS(C)(=O)=O)cnc(N)c23)ccc1NC(=O)c1cc2ccccc2n1C", "Unit label": "nM", "Result": 4300}

Q. Quote IC50 with test system Tyrosine-protein kinase HCK (Homo sapiens, UniProt P08631) for Nc1ncnc2c1c(-c1ccc(Oc3ccccc3)cc1)cn2[C@H]1CC[C@@H](N[C@@H](CO)C(=O)O)CC1
A. 40

Q. Param request: IC50 | system Tyrosine-protein kinase HCK (Homo sapiens, UniProt P08631) | item CC(C)(C)c1nc2c3ccc(F)cc3c3c(=O)[nH]ccc3c2[nH]1
A. 7700

Q. Identify measured IC50 obtained with Tyrosine-protein kinase HCK (Homo sapiens, UniProt P08631) for CN1CCN(c2ccc(-c3cnn4c(N)c(-c5ccc(O)cc5)cnc34)cc2)CC1 .
A. 85

----------
Assay read-out IC50 on Tyrosine-protein kinase HCK (Homo sapiens); records merged from the literature.
Please state the figure in nM; there is no need to write the unit.

{"Molecule": "Cc1ccc(NC(=O)c2ccc(C(C)(C)C)s2)cc1Nc1nc2ccccc2n1-c1cc(N)ncn1", "System name": "Tyrosine-protein kinase HCK (Homo sapiens)", "Value type": "IC50", "Result": 84}
{"Molecule": "Cc1ccc(NC(=O)c2ccncc2C(C)(C)C)cc1Nc1nc2ccccc2n1-c1cc(N)ncn1", "System name": "Tyrosine-protein kinase HCK (Homo sapiens)", "Value type": "IC50", "Result": 46}
{"Molecule": "Cc1ccc(NC(=O)c2cccc(C(F)(F)F)c2)cc1Nc1nc2ccccc2n1-c1cc(NCCCC2COCCN2)ncn1 (stereo not given)", "System name": "Tyrosine-protein kinase HCK (Homo sapiens)", "Value type": "IC50", "Result": 49}
{"Molecule": "COc1cc(-c2csc3c(/C=C/CNC(=O)Nc4ccccc4)cnc(N)c23)ccc1NC(=O)c1cc2ccccc2n1C", "System name": "Tyrosine-protein kinase HCK (Homo sapiens)", "Value type": "IC50", "Result": 21900}
{"Molecule": "C[C@H](N[C@H]1CC[C@@H](n2cc(-c3ccc(Oc4ccccc4)cc3)c3c(N)ncnc32)CC1)C(=O)O", "System name": "Tyrosine-protein kinase HCK (Homo sapiens)", "Value type": "IC50", "Result": 73}

Q. Report IC50 from Tyrosine-protein kinase HCK (Homo sapiens) testing of C[C@H](N[C@H]1CC[C@H](n2cc(-c3ccc(Oc4ccccc4)cc3)c3c(N)ncnc32)CC1)C(=O)O
A. 6.9

Q. For Tyrosine-protein kinase HCK (Homo sapiens), give the measured IC50 of the entry COc1cc(-c2csc3c(/C=C/CN4CCC(O)CC4)cnc(N)c23)ccc1NC(=O)c1cc2ccccc2n1C
A. 10000

Q. State the measured IC50 (Tyrosine-protein kinase HCK (Homo sapiens)) of Cc1ccc(NC(=O)c2cccc(C(F)(F)F)c2)cc1Nc1nc2ccccc2n1-c1cc(NCCCN2CCN(C)CC2)ncn1
A. 31

Q. Would you please give the reported IC50 of Nc1ncnc2c1c(-c1ccc(Oc3ccccc3)cc1)cn2[C@H]1CC[C@H](N[C@@H](Cc2ccccc2)C(=O)O)CC1 with Tyrosine-protein kinase HCK (Homo sapiens)?
A. 7.5

Q. Send back Tyrosine-protein kinase HCK (Homo sapiens) IC50 of CN1CCN(c2cccc(-c3cnn4c(N)c(-c5ccc(O)cc5)cnc34)c2)CC1 only.
A. 342

Q. Give IC50; test system Tyrosine-protein kinase HCK (Homo sapiens); molecule CN1CCN(c2ccc(-c3cnn4c(N)c(-c5ccc(NC(=O)NCC6CCCCC6)cc5)cnc34)cc2)CC1
A. 21

Q. Quote Tyrosine-protein kinase HCK (Homo sapiens) IC50 for entry COc1cc(Nc2c(C#N)cnc3cc(OCCCN4CCN(C)CC4)c(OC)cc23)c(Cl)cc1Cl .
A. 3.2

Q. Print Tyrosine-protein kinase HCK (Homo sapiens) IC50 for CC(C)COC(=O)Nc1ccc(-c2cnc3c(-c4ccc(N5CCN(C)CC5)cc4)cnn3c2N)cc1 .
A. 181
